src = PubChem BioAssay (NCATS)

experimental.details: qHTS for differential inhibitors of proliferation of Plasmodium falciparum line D10 (AID 1877);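 further: parasites grown with compound for 72 h before DNA staining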
stated.conditions: series mostly up to 28.7 µM
Records with an inconclusive call do not appear. Active and inactive are the calls of the source. The call rests on the fitted dose curve; in most records, active means well fitted curve in the direction sought with a large enough effect; inconclusive means small, poorly fitted or top-dose-only effect, or another doubt; inactive means no such curve, though single readings can be large or run the other way.
Valid outcomes are listed here; reply with one: class 1 for active, class 0 for inactive

These solved cases illustrate the format of a correct answer.
- C[C@](N)(Cc1ccc(O)cc1)C(=O)O: class 0
- CC1=C(/C=C/C(C)=C/C=C/C(C)=C/C(=O)O)C(C)(C)CCC1: class 0
- COc1ccc(Cl)cc1C(=O)NCCc1ccc(S(=O)(=O)NC(=O)NC2CCCCC2)cc1: class 0
- C=Cc1c(C)c2cc3[nH]c(cc4nc(cc5nc(cc1[nH]2)C(C)=C5CCC(=O)O)C(CCC(=O)O)=C4C)c(C)c3C=C: class 0
- CC(CN(C)C)CN1c2ccccc2CCc2ccccc21 (configuration not stated): class 1

Inquiry: Please state the recorded outcome for this compound: `N=c1c[n+](N2CCOCC2)[n-]o1`
Reply text: class 0

Inquiry: So what was the verdict on `Cc1cc(N)c2ccccc2[n+]1CCCCCCCCCC[n+]1c(C)cc(N)c2ccccc21` in this test?
Reply text: class 1

====

viability, percent of control values by entry
experimental.details: Cell Proliferation Assay against the HBL1 Cell Line (AID 651646);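 further: cells exposed to compound for 48 h before reading; 100% = DMSO and 0% = 9.2 µM bortezomib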
stated.conditions: HBL1 DLBCL cells; at 46.1 µM (top of the series) unless noted

Example entries and their recorded answers appear below.
• Oc1cn2c(n1)Nc1ccc(Cl)c(Cl)c1C2 = 58.4%
• CC(=O)O[C@@]12CO[C@@H]1C[C@H](O)[C@@]1(C)C(=O)[C@H](O)C3=C(C)[C@@H](OC(=O)[C@H](O)[C@@H](NC(=O)OC(C)(C)C)c4ccccc4)C[C@@](O)([C@@H](OC(=O)c4ccccc4)[C@H]21)C3(C)C = 69%
• NC(=O)c1ncn([C@@H]2O[C@H](CO)[C@@H](O)[C@H]2O)c1N = 159%

The molecule listed as `O=C1Nc2ccc(Cl)cc2[C@@](C#CC2CC2)(C(F)(F)F)O1` has a reported viability, percent of control of 2.9% [at 92.2 µM]

====

target.under.test: M-phase phosphoprotein 8 (Homo sapiens) (UniProt Q99549)
Sequence (Q99549 whole entry, looked up): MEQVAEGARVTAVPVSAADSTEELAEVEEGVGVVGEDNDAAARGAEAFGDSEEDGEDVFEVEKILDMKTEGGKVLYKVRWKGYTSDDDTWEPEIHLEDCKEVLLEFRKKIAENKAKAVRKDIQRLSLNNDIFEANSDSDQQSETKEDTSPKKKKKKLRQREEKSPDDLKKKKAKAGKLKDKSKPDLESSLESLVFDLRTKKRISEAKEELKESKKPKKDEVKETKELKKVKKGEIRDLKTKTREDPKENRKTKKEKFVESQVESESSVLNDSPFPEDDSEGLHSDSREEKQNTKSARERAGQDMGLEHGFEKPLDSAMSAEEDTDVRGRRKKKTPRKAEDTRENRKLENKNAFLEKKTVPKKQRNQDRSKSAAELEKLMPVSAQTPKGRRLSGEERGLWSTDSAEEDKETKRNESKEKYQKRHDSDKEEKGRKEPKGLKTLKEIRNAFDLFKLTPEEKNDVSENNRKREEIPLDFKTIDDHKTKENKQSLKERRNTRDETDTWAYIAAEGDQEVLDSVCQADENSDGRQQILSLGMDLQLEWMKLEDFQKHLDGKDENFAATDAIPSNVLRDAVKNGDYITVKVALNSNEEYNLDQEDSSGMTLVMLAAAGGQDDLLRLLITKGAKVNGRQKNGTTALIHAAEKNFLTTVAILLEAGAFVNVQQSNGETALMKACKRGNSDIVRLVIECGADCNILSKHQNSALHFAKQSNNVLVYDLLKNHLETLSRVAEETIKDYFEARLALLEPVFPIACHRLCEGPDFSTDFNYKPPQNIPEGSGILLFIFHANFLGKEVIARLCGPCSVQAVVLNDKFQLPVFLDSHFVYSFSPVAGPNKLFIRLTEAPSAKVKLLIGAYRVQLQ
experimental.details: qHTS Validation Assay for Inhibitors for MPP8 Chromodomain Interactions with Methylated Histone Tails (AID 488949);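 further: 50 nM MPP8 with 50 nM peptide preformed then compounds added for 30 min; AlphaScreen signal from MPP8 chromodomain bound to biotinylated H3K9me3 peptide; top concentration of the series differs between compounds; on the % scale 0 is the no-effect control and ±100 the full control effect; nearly all actives have a fitted effect of over 55% in size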
stated.conditions: AlphaScreen MPP8 binding to H3K9me3 peptide; series mostly up to 57.1 µM
Results filed as inconclusive are left out. The source made the active and inactive calls. Calls come from the whole dose curve; as a rule, active = well fitted inhibition curve with a large enough effect; inconclusive = small, poorly fitted or top-dose-only effect; inactive = no such curve, though single readings can be large or run the other way.
Pick one and only one: label 1 for active, label 0 for inactive

- NC(N)=NCCC[C@H](N)C(=O)O: label 0
- CN1CCN(C2Cc3ccccc3Sc3ccc(Cl)cc32)CC1 (stereo unspecified): label 0
- C[C@]12CC[C@@H]3c4ccc(O)cc4CC[C@H]3[C@@H]1CCC2=O: label 0

Please turn your attention to the following entry.
Inquiry: Name the outcome recorded for `C=Cc1c(C)c2cc3[nH]c(cc4nc(cc5nc(cc1[nH]2)C(C)=C5CCC(=O)O)C(CCC(=O)O)=C4C)c(C)c3C=C` in the assay.
Reply text: label 0

====

experimental.details: Validation qHTS assay for inhibitors of Activation Induced Cytidine Deaminase (AID): UDG Counterscreen signal (AID 1347427); further: 0% is about no effect
stated.conditions: biochemical UDG counterscreen, fluorescence signal; series mostly up to 115 µM
Active and inactive are the calls of the source. The call rests on the fitted dose curve; in most records, active means well fitted curve in the direction sought with a large enough effect; inconclusive means small, poorly fitted or top-dose-only effect, or another doubt; inactive means no such curve, though single readings can be large or run the other way.
Output constraint: value belongs to active, inactive

* C#CCN(C)Cc1ccccc1 | inactive
* C[C@]12C[C@H](O)[C@H]3[C@@H](CCC4=CC(=O)CC[C@@]43C)[C@@H]1CC[C@@H]2C(=O)CO | inactive
* CC(C)C(=O)c1c(C(C)C)nn2ccccc12 | inactive
* C[C@]12CC[C@@H]3c4ccc(O)cc4CC[C@H]3[C@@H]1CCC2=O | inactive
* CNCCCC1c2ccccc2C=Cc2ccccc21 | inactive

Now for a further compound.
Inquiry: Recorded test outcome, item `O=C1N=C(O)CN1/N=C/c1ccc(-c2ccc([N+](=O)[O-])cc2)o1`
Reply text: inactive

====

experimental.details: Primary qHTS for inhibitors of nuclear receptor binding SET domain protein 2 (NSD2) in an isogenic RCH-ACV NSD2 p.E1099K mutant (9B) (AID 1645876); further: nearly all actives have a fitted effect of over 70% in size; further: potency means the concentration at half of the fitted maximal effect
stated.conditions: RCH-ACV (leukaemia line) NSD2 E1099K (9B) viability, CellTiter-Glo, 72 h; series mostly up to 44.9 µM
Results filed as inconclusive are left out. Calls of active or inactive are those of the source. The call rests on the fitted dose curve; in most records, active means well fitted inhibition curve with a large enough effect; inconclusive means small, poorly fitted or top-dose-only effect; inactive means flat fitted curve, though single readings scatter.
endpoint.label: Potency

// below: answered molecules
• CC(=O)Nc1ccc(/C=N/NC(N)=S)cc1 = 21.1 µM (active)
• CN(C)CCOC(C)(c1ccccc1)c1ccccn1 (stereo not given) = inactive
• CC(C)(O)c1ccccc1CC[C@@H](SCC1(CC(=O)O)CC1)c1cccc(/C=C/c2ccc3ccc(Cl)cc3n2)c1 = inactive
• CC(C)C(=O)c1c(C(C)C)nn2ccccc12 = inactive
• CSc1ccc2c(c1)N(CCC1CCCCN1C)c1ccccc1S2 (stereo not given) = 5.96 µM (active)

Now let's try a different one.
Value of Potency reported for the molecule CCN(CC)CCCC(C)Nc1c2ccc(Cl)cc2nc2ccc(OC)cc12 (stereo not given) is 7.42 µM (active)

====

Test system: MKL-2
experimental.details: qHTS assay to identify novel small-molecules to repurpose for Merkel cell carcinoma treatment (AID 1296009); further: nearly all actives have a fitted effect of over 60% in size
stated.conditions: MCC and control cell lines, CellTiter-Glo viability, 72 h; series mostly up to 46 µM
Source text: MCC is a rare and aggressive neuroendocrine skin cancer with limited treatment options. Approximately 80% of MCCs have the Merkel cell polyomavirus (MCPyV) DNA integrated into the host genome (virus-positive: VP-MCC) and viral oncogenes drive oncogenesis. The remaining MCCs are virus-negative (VN-MCC) and are caused by UV mutagenesis. […] Using cell viability as a readout (CellTiter-Glo assay) we found both overlapping and distinct drugs that can be repurposed for the treatment of VP-MCC and VN-MCC. […]
Inconclusive results are not listed. Active and inactive are the calls of the source. The call rests on the fitted dose curve; in most records, active means well fitted inhibition curve with a large enough effect; inconclusive means small, poorly fitted or top-dose-only effect; inactive means flat fitted curve, though single readings scatter.
Hello, when you answer, please use one of the following outcomes: active, inactive

- c1ccc2c(CC3=NCCN3)cccc2c1: inactive
- Cc1cc(C(C#N)c2ccc(Cl)cc2)c(Cl)cc1NC(=O)c1cc(I)cc(I)c1O (stereo not drawn): inactive
- COc1cc(C)c(Cc2cnc(N)nc2N)cc1OC: inactive
- Cn1c(=O)c2c(ncn2CC2OCCO2)n(C)c1=O: inactive
- COC(=O)C1=C(C)NC(C)=C(C(=O)OC)C1c1ccccc1[N+](=O)[O-]: active

Inquiry: Lab log entry: `CS(=O)(=O)c1ccc([C@@H](O)[C@@H](CF)NC(=O)C(Cl)Cl)cc1` — outcome as called in the assay?
Reply text: inactive

Inquiry: Returns: the outcome recorded for OCC(O)CN1CCN(c2ccccc2)CC1 (stereo not drawn) in this assay.
Reply text: inactive

Inquiry: Outcome? `CC/C=C(\C(=O)N[C@@H]1C(=O)N2C(C(=O)OCOC(=O)C(C)(C)C)=C(COC(N)=O)CS[C@H]12)c1csc(N)n1`
Reply text: inactive

Inquiry: Can you look up the reported call for `COc1ccc(S(=O)(=O)Nc2nnc(CC(C)C)s2)cc1` for me?
Reply text: inactive

Inquiry: Hi team, can someone confirm the assay call for `CCn1cc(C(=O)O)c(=O)c2cnc(N3CCNCC3)nc21` ?
Reply text: inactive

====

experimental.details: S16 Schwann cell viability assay (CellTiter-Glo assay) (AID 624031);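 further: native untransfected S16 rat Schwann cells; cellular ATP luminescence as a viability measure; plate controls were DMSO-treated cells for no effect and cell-free wells for full effect; nearly all actives have a fitted effect of over 70% in size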
stated.conditions: S16 rat Schwann cells viability, 24 h; series mostly up to 57.5 µM
Records with an inconclusive call do not appear. Calls of active or inactive are those of the source. Calls follow the shape of the dose curve; as a rule, active = well fitted cell-killing curve with a large enough effect; inconclusive = small, poorly fitted or top-dose-only effect, or effect the other way; inactive = flat fitted curve, though single readings scatter.
Give one outcome, nothing more. List: True for active, False for inactive

* O=C1OC(OC(=O)c2cccnc2Nc2cccc(C(F)(F)F)c2)c2ccccc21 (centres undefined) | False
* C[C@]12C[C@H](O)[C@H]3[C@@H](CCC4=CC(=O)CC[C@@]43C)[C@@H]1CC[C@@H]2C(=O)CO | False
* CCCn1cnc2c1c(=O)n(CCCCC(C)=O)c(=O)n2C | False

Inquiry: Call for entry `Nc1ccc(S(=O)(=O)NC(=O)c2ccccc2)cc1` :
Reply text: False

Inquiry: So what was the verdict on CN1CCCCC1CCN1c2ccccc2Sc2ccc(S(C)=O)cc21 (centres undefined) in this test?
Reply text: False

Inquiry: Would you mind telling me which call this test gave `CCN(CC)CCNC(=O)c1cc(Cl)c(N)cc1OC` ?
Reply text: False

Inquiry: Hi team, can someone confirm the assay call for `Cc1ccc2nc(N)[nH]c(=O)c2c1Sc1ccncc1` ?
Reply text: False

Inquiry: // outcome(item) with item = `NS(=O)(=O)c1cc2c(cc1Cl)NC(CSCc1ccccc1)=NS2(=O)=O`
Reply text: False

Inquiry: So what was the verdict on `CC[C@@]1(c2ccccc2)NC(=O)N(C)C1=O` in this test?
Reply text: False

====

Catalogue of activity, negative = cell killing readings, one per entry.
experimental.details: Drug repurposing screens with cells derived from glioblastoma tumor samples (AID 1345199); further: on the % scale 0 is the no-effect control and ±100 the full control effect; nearly all actives have a fitted effect of over 40% in size
stated.conditions: GBM patient neurospheres viability, ATP luminescence, 48 h; at 21.2 µM (top of the series); tumour line D
Records with an inconclusive call do not appear. Calls of active or inactive are those of the source. Calls follow the shape of the dose curve; as a rule, active = well fitted inhibition curve with a large enough effect; inconclusive = small, poorly fitted or top-dose-only effect; inactive = flat fitted curve, though single readings scatter.

Check out these entries, answers already filled in.
* COc1ccc2c(c1)C(=O)N(CCc1ccc(S(=O)(=O)NC(=O)NC3CCCCC3)cc1)C(=O)C2(C)C | -7.62% (inactive)
* Cc1cc2c(cc1S(N)(=O)=O)S(=O)(=O)CCC2 | 3.88% (inactive)
* CS(=O)(=O)c1ccc([C@@H](O)[C@@H](CF)NC(=O)C(Cl)Cl)cc1 | -7.33% (inactive)
* Cc1ncc([N+](=O)[O-])n1CC(O)CCl (stereo not given) | -1.81% (inactive)
* NS(=O)(=O)c1cc2c(cc1C(F)(F)F)NC(Cc1ccccc1)NS2(=O)=O (stereo not given) | -0.808% (inactive)

activity, negative = cell killing recorded for this compound, `C#CCN(C)Cc1ccccc1` , is -7.66% (inactive)

GET /value?item= `CCCCN(CCCC)CCCOC(=O)c1ccc(N)cc1` &field=activity, negative = cell killing returns -16% (inactive)

activity, negative = cell killing in this record for `C[C@@H]1CC[C@@]2(OC1)O[C@H]1C[C@H]3[C@@H]4CC[C@H]5C[C@@H](O)CC[C@]5(C)[C@H]4CC(=O)[C@]3(C)[C@H]1[C@@H]2C` : -22.8% (inactive)

For record `NS(=O)(=O)c1cc2c(cc1Cl)NC(CSCc1ccccc1)=NS2(=O)=O` the listed activity, negative = cell killing is -24.5% (inactive)

The measured activity, negative = cell killing associated with CC1CC(OC(=O)C(O)c2ccccc2)CC(C)(C)N1C (stereo not given) reads -6.11% (inactive)
